- System: SF-539
- Protocol Text: NCI tumour cell line growth inhibition, 48 h
The source made the active and inactive calls. No stated cut-off is given here; in the data, active = GI50 up to about 1.1 µM and inactive = higher.
Recorded Endpoint: GI50

Molecule | Result
CC1C(O)Oc2cc3c(cc2C1c1ccccc1O)OCO3 (stereo not given) | 27.9 µM (inactive)

input: Entry under review: CC1CNC(c2ccc(CN3CCC(CCCC4CCN(Cc5ccc(C6=NC(C)CN6)cc5)CC4)CC3)cc2)=N1 (stereo not given) . Reported GI50?
output: 29.6 µM (inactive)

input: What GI50 value was documented for this molecule, `C=CCc1cccc2cc(C(=O)Nc3ccccc3)c(=N)oc12` ?
output: 28.2 µM (inactive)

input: Record request: GI50 value, item `COP(=O)(OC)[C@@](O)(c1ccccc1)[C@@H](O)[C@H](O)c1ccccc1`
output: 38.4 µM (inactive)

input: For `Cn1c2ccccc2c2c3c(c4c5ccccc5n(C)c4c21)C(=O)NC3=O` , what is its reported GI50?
output: 10.2 µM (inactive)

input: State the recorded GI50 for this entry: `CCCCOC(=O)NC(Nc1ccc(S(=O)(=O)Nc2ncccn2)cc1)(C(F)(F)F)C(F)(F)F`
output: > 100 µM (inactive)

FYI, the data here is from ChEMBL document CHEMBL1201862.
